Species: Rattus norvegicus
Experiment: Relative inhibition of cAMP and cGMP hydrolysis by particulate phosphodiesterase
In this section we review reported Ratio values for a set of compounds.
measured attribute: Ratio

• O=c1c(OCCBr)c(-c2ccc(OCCBr)c(OCCBr)c2)oc2cc(OCCBr)cc(OCCBr)c12 = 0.73
• O=c1c(OCCO)c(-c2ccc(OCCO)c(OCCO)c2)oc2cc(OCCO)cc(OCCO)c12 = 0.05
• CC(=O)Oc1cc(OC(C)=O)c2c(=O)c(OC(C)=O)c(-c3ccc(OC(C)=O)c(OC(C)=O)c3)oc2c1 = 0.46
• CCOc1cc(OCC)c2c(=O)c(OCCN(CC)CC)c(-c3ccc(OCC)c(OCC)c3)oc2c1 = 0.16
• CCOC(=O)COc1cc(OCC)cc2oc(-c3ccc(OCC)c(OCC)c3)c(OCC)c(=O)c12 = 0.01
• CCOc1cc(OCC)c2c(=O)c(OCC(=O)O)c(-c3ccc(OCC)c(OCC)c3)oc2c1 = 0.31
• COc1cc(OC)c2c(=O)c(OC)c(-c3ccc(OC)c(OC)c3)oc2c1 = 0.1
• CCOc1cc(OCC(=O)O)c2c(=O)c(OCC)c(-c3ccc(OCC)c(OCC)c3)oc2c1 = 0.32
• CCCCOc1cc(CC2CNC(=O)N2)ccc1OC (centres undefined) = 0.007
• CCOc1cc(OCCBr)c2c(=O)c(OCC)c(-c3ccc(OCC)c(OCC)c3)oc2c1 = 0.18
• CCCOc1ccccc1-c1nc2[nH]nnc2c(=O)[nH]1 = 1.17
• CCOc1cc(OCCN(CC)CC)c2c(=O)c(OCC)c(-c3ccc(OCC)c(OCC)c3)oc2c1 = 0.11
• O=c1c(O)c(-c2ccc(O)c(O)c2)oc2cc(O)cc(O)c12 = 0.24
• CCOc1cc(OCC)c2c(=O)c(OCC)c(-c3ccc(OCC)c(OCC)c3)oc2c1 = 0.02

Entry source: ChEMBL document CHEMBL1122175
